Tested on: UACC-257 melanoma
Assay: NCI tumour cell line growth inhibition, 48 h; in the data active = GI50 below about 0.43 µM; inactive = the rest
Would you mind answering with one of these outcomes? active, inactive

COMPOUND	ASSIGNED CLASS
O=S(=O)(NCCNc1cc(-c2cn(-c3ccccc3)nc2-c2cccc(O)c2)ccn1)c1ccc(C(F)(F)F)cc1	inactive

Query: Hi team, can someone confirm the assay call for O=c1ncc(-c2ccc(C(F)(F)F)cc2)c(NC2CCCCCC2)[nH]1 ?
Reply: inactive

Query: Hi team, can someone confirm the assay call for Nc1nc(N)c2nc(CNc3ccc(C(=O)CC(CCC(=O)O)C(=O)O)cc3)cnc2n1 (stereo not drawn) ?
Reply: inactive

====

System: SF-295 CNS
Test: NCI tumour cell line growth inhibition, 48 h
Field: TGI. Provide a value for each of the molecules that follow.

Here are 8 molecules together with their reported answers.
MOLECULE	TGI
CCN1C(C)=NC2C(=O)c3ccccc3C(=O)C21 (stereo unspecified)	> 100 µM
CCOC(=O)CSc1nc2ccccc2c(=O)n1N	> 100 µM
COc1ccc(C(=S)c2cc(OC)c(OC)c(OC)c2)cc1OC(=O)CCl	> 100 µM
CC1(C)SC2C(C(=O)O)N=C(Cc3ccccc3)N2C1C(=O)O (stereo unspecified)	> 100 µM
O=C(NNC(=S)Nc1ccccc1)C12CC3CC(CC(C3)C1)C2	> 100 µM
Cc1cc(NC(=O)c2ccc(NS(=O)(=O)CCO)cc2N2CCC3(CC2)CC3)nc(N2CCC(F)(F)CC2)n1	27.3 µM
COc1cc2c(c(OC)c1OC)-c1ccc([O-])c(=O)cc1[C@@H](NC(C)=O)CC2.COc1cc2c(c(OC)c1OC)-c1ccc([O-])c(=O)cc1[C@@H](NC(C)=O)CC2.[Cu+2]	> 100 µM
CS(=O)(=O)c1ccc(N/N=C/c2c(-c3ccc(S(C)(=O)=O)cc3)[nH]c3ccc(F)cc23)cc1	1.89 µM

Each molecule below has a reported value. Please supply its TGI.
1. COC(=O)c1ccccc1C1CN=NC12Cc1c(C)cc(C)cc1C2=O (stereo unspecified)
2. O=C1C2CC3C(CC2C(=O)[N]1[Sn]([c]1ccccc1)([c]1ccccc1)[c]1ccccc1)C1(Cl)C(Cl)=C(Cl)C3(Cl)C1(Cl)Cl (stereo unspecified)
3. COc1ccc(C(=O)/C=C/c2cc3ccccc3[nH]c2=O)cc1

Reply:
1. > 100 µM
2. 0.455 µM
3. > 57.1 µM

====

Field: TGI. Provide a value for each of the molecules that follow.
System: K-562 leukemia
Assay: NCI tumour cell line growth inhibition, 48 h

Here are 5 molecules together with their reported answers.
MOLECULE	TGI
Nn1c(CCCl)nc2c(Br)cc(Br)cc2c1=O	> 30.6 µM
COc1ccccc1C1C2=C(COC2=O)OC(C)(C)Oc2cc3c(cc21)OCO3 (stereo not given)	12.8 µM
C=C1C(=O)O[C@@H]2[C@H]1CC[C@H](C)[C@]1(O)CCC(=O)[C@@]21C	> 10 µM
CCOC(=O)CSc1nc2ccccc2c(=O)n1N	> 100 µM
CCOC(=O)/C(C#N)=C(/NS(=O)(=O)c1cc(C)c(Cl)cc1[S-])[n+]1ccc(N(C)C)cc1	> 100 µM

Each molecule below has a reported value. Please supply its TGI.
1. CCCCCCCC1c2cc3[nH]c(cc4nc(cc5[nH]c(cc(n2)[C@@]1(C)CC(=O)N(C)C)c(C)c5CCC(=O)O)C(CCC(=O)O)=C4C)cc3C (stereo not given in full)
2. CCCC(OCC)(OCC)OCC

Reply:
56.7 µM
> 100 µM

Each molecule below has a reported value. Please supply its TGI.
1. CCCCCCNC(=O)c1cc(NCc2cc(OC)ccc2OC)ccc1O
2. OCCN1CCN(CCO)Cc2ccccc2OCCOc2ccccc2C1
3. O=C(O)C(Cc1cccs1)NC(=O)C(F)(F)F (stereo not given)
4. CCOC(=O)/C(=C/c1ccc(OC)c(OC)c1)C(=O)c1ccccc1
5. c1ccc(COCC23CCN(Cc4ccccc4)C(CC(OCc4ccccc4)C2)S3)cc1 (stereo not given)
6. COc1cc2c(c(OC)c1OC)-c1ccc([O-])c(=O)cc1[C@@H](NC(C)=O)CC2.COc1cc2c(c(OC)c1OC)-c1ccc([O-])c(=O)cc1[C@@H](NC(C)=O)CC2.[Cu+2]
7. Cn1c(=O)n(-c2c3ccccc3c(Cl)c3ccccc23)n(C(C)(C)C)c1=O
8. Cc1nc(NC(=S)NC(=O)c2ccc(Cl)c(Cl)c2)sc1C(=O)/C=C/c1ccccc1[N+](=O)[O-]

Reply:
47.3 µM
> 100 µM
> 100 µM
> 100 µM
> 100 µM
> 100 µM
> 100 µM
42.2 µM

Each molecule below has a reported value. Please supply its TGI.
1. CCOC(=O)C12CCCC1(O)N(NC(=O)c1cccc(Cl)c1)C(C)=C2C(=O)OC (stereo not given)
2. CO/C(=N/N1CC1C(F)(F)F)c1ccncc1 (stereo not given)
3. COc1ccc(-c2oc3c(CC(=O)O)cccc3c(=O)c2OC)cc1
4. O=C1O/C(=C\c2ccc(O)c(Br)c2)C(c2ccc(O)cc2)=C1Cl
5. CN(C(=O)OC(C)(C)C)[C@H]1CCCC[C@H]1N1CCCC1

Reply:
["> 100 µM", "> 100 µM", "> 100 µM", "> 100 µM", "> 100 µM"]
